In this section we review reported composite z-score values for a set of molecules.
- system-tested: Calmodulin-1 (Homo sapiens)
- protocol-summary: CALM1 binders on microarrays, EGTA buffer, profiling panel, biochemical, small-molecule microarray, Cy5-labelled CALM1 (AID 1111);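 further: labelled calmodulin applied in Tris saline Tween buffer holding calcium plus EGTA and DTT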
- test-parameters: Cy5-CALM1 binding fluorescence, higher = more signal
Respond with the number and no other words.

molecule	composite z-score
C=CCC(OC(C)=O)[C@@H]1[C@@H](N(Cc2ccc(-c3ccccc3)cc2)C(=O)c2cccc3ccccc23)c2cc(OCCCO)ccc2N1C(=O)c1ccc(-c2ccccc2)cc1 (stereo partly drawn)	0.468
COc1ccc(-c2cc3c(c(-c4ccc(Oc5ccccc5)cc4)n2)[Si](C(C)C)(C(C)C)OC3)cn1	-0.266
CCC(CC)C(O)C1C=CC2C(=O)NC(=O)C2N1Nc1ccccn1 (stereo not drawn)	0.0646
C=C(CCCC)/C(=C/C[C@@H](OC(C)=O)c1ccc(OCCO)cc1)c1cnc2ccccc2c1	-0.276
COC(=O)[C@@]1(Cc2ccc(OC)cc2)[C@H]2c3cc(C(=O)N(C)C)n(C)c3C[C@H]2CN1C(=O)c1ccccc1	2.01
CCCC#C[Si](O[C@H](CC)c1cn(Cc2cccc(Cl)c2)nn1)(C(C)C)C(C)C	0.0375
COc1ccc([Si](C)(C)[C@H]2[C@H](CC(=O)N3Cc4ccccc4C[C@H]3CO)O[C@@]3(C(=O)N(Cc4cccc(N5CCC5=O)c4)c4ccccc43)[C@@H]2C)cc1	-0.293

API: the following record is the query input.
Problem: Complete the entry with composite z-score for "CC(C)N1C(=O)c2ccccc2[C@](C)(C(=O)NCCN2CCOCC2)[C@@H]1c1ccc(CO)cc1"
Solution: -0.454

---

- protocol-summary: PSAC antagonists in infected red cells, primary screen, cell-based, P. falciparum Indochina, OD700, 18 h (AID 1157)
- test-parameters: P. falciparum Indochina infected erythrocytes, osmotic lysis OD700, 18 h; higher = more signal, called active from +8 up or from −8 down
endpoint-label: z-score
Answer as a number with no unit attached.

compound	z-score
O=C1c2ccccc2[C@](Cc2ccccc2I)(C(=O)NCCN2CCOCC2)[C@H](c2ccc(CO)cc2)N1C1CCCCC1	0.5
COc1cc2c(cc1OC)CN(C(=O)[C@H]1[C@@H]3C(=O)O[C@@H](c4ccccc4)[C@@H](c4ccccc4)N3[C@@H](c3ccc(O)cc3)[C@]13C(=O)Nc1ccc(C#CCCO)cc13)CC2	0.689
C=CCN1C(=O)[C@]2(O[C@H](CCn3cc([C@H](O)c4ccccc4)nn3)[C@@H]([Si](C)(C)c3ccc(OC)cc3)[C@@H]2C)c2ccccc21	0.843
COCCOC(=O)N1C(=O)[C@@]2(c3ccccc31)[C@H](C(=O)N1CCc3cc(OC)c(OC)cc3C1)[C@H]1C(=O)O[C@H](c3ccccc3)[C@H](c3ccccc3)N1[C@@H]2c1ccc(OCCO)cc1	0.983
COCCOC(=O)N1C(=O)[C@@]2(c3cc(C#CCC(C(=O)OC)C(=O)OC)ccc31)[C@H](C(=O)N1CCN(c3ncccn3)CC1)[C@H]1C(=O)O[C@H](c3ccccc3)[C@H](c3ccccc3)N1[C@@H]2c1ccccc1OCCO	0.533

Moving on to another compound below.
Problem: Complete the entry with z-score for CN1C(=O)C2C=CC(C(O)C#Cc3ccccc3)N(N3CCCCC3)C2C1=O (stereo unspecified)
Solution: 1.17
